measured.on: T1, HSP70 (human HSP70; the antigen of the binning, humanization and variant binding assays) (human, UniProt P0DMV8 1-641, limits assumed)
T1 construct: also called hu HSP70
method.description: BLI, anti-human Fc capture, antigen dilution series, 1:1 fit
measured.endpoint: koff (s⁻¹)

binder="h77A-1.16 (antibody, V domains shown, captured by anti-human Fc) VH: QIQLVQSGAEVKKPGASVKVSCKASGYTFTKYGMNWVRQAPGQGLEWMGWINTYTGEPTYADDFKGRFTFTTDTSTSTAYMELRSLRSDDTAVYFCARYDHAMDYWGQGTLVTVSS VL: EIVLTQSPDSLAVSLGERATIKCKSSQSLLNSGTRKNYLAWYQQKAGQSPKLLIYWTSTRESGVPDRFSGSGSGTDFTLTIDSLQAEDVAVYYCKQSYTLYTFGGGTKVEIK" units_label=s⁻¹ measurement=6.84e-05
binder="h77A-1.59 (antibody, V domains shown, captured by anti-human Fc) VH: QIQLVQSGPEVKKPGASVKVSCKASGYTFTNYGMNWVRQAPGQGLEWMGWINTYTGEPTYGDDFKGRFTFTTDTSTSTAYMELRSLRSDDTAVYFCGRYDHAMDYWGQGTLVTVSS VL: EIVLTQSPDSLAVSLGERATINCKSSQSLLNSGTRKNYLAWYQQKAGQSPKLLIYWTSTRESGVPDRFSGSGSGTDFTLTIDRLQAEDVAVYYCKQSYTLYTFGGGTKVEIK" units_label=s⁻¹ measurement=0.00012
binder="h77A-1.6 (antibody, V domains shown, captured by anti-human Fc) VH: QIQLVQSGAEVKKPGASVKVSCKASGYTFTNYGMNWVRQAPGQGLEWMGWINTYTGEPTYADDFKGRFTFTTDTSTRTAYMELRSLRSDDTAVYFCARYDHAMDYWGQGTLVTVSS VL: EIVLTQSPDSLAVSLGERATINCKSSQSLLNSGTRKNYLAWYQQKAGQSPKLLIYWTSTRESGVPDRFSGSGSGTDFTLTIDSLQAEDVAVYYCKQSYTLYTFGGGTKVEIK" units_label=s⁻¹ measurement=0.000114
